Attribute: Ki
# SYSTEM_UNDER_TEST: UniProt:O97467
# METHOD_DESCRIPTION: Inhibition of D-glucose uptake mediated by PfHT expressed in Xenopus oocytes
# Type: functional, cell-based, Oocyte
# CONDITION_SET: read-out: Ki

{"COMPOUND": "CCCCc1ccc(CCCCCO[C@H]2[C@H](O)[C@@H](CO)OC(O)[C@@H]2O)cc1 (stereo not given in full)", "Ki": "81 µM"}
{"COMPOUND": "C=CCOCCCCCCCO[C@H]1[C@H](O)[C@@H](CO)OC(O)[C@@H]1O (stereo not given in full)", "Ki": "> 500 µM"}
{"COMPOUND": "CCCCCCCCCO[C@H]1[C@H](O)[C@@H](CO)OC(O)[C@@H]1O (stereo not given in full)", "Ki": "32 µM"}
{"COMPOUND": "C=CCCCCCCCO[C@H]1[C@H](O)[C@@H](CO)OC(O)[C@@H]1O (stereo not given in full)", "Ki": "41 µM"}
{"COMPOUND": "C=CCCCCCCCCCCO[C@H]1[C@H](O)[C@@H](CO)OC(O)[C@@H]1O (stereo not given in full)", "Ki": "36 µM"}

====

Catalogue of pKi values
# SYSTEM_UNDER_TEST: Hexose transporter 1 (Plasmodium falciparum, UniProt O97467)
# METHOD_DESCRIPTION: Inhibition of D-glucose uptake mediated by PfHT expressed in Xenopus oocytes
# Type: functional, cell-based, Oocyte
# CONDITION_SET: read-out: Ki
pKi: −log10 of the molar value.

{"COMPOUND": "CCCCCCCCCCCO[C@H]1[C@H](O)[C@@H](CO)OC(O)[C@@H]1O (some centres undefined)", "CENSORING_OPERATOR": "=", "pKi": 4.64}
{"COMPOUND": "OC[C@H]1OC(O)[C@H](O)[C@@H](OCCCCCc2ccccc2)[C@@H]1O (some centres undefined)", "CENSORING_OPERATOR": "=", "pKi": 4.19}
{"COMPOUND": "CCCCCCCCCCCCO[C@H]1[C@H](O)[C@@H](CO)OC(O)[C@@H]1O (some centres undefined)", "CENSORING_OPERATOR": "=", "pKi": 4.52}
{"COMPOUND": "CCCCCCCCCCCCCCO[C@H]1[C@H](O)[C@@H](CO)OC(O)[C@@H]1O (some centres undefined)", "CENSORING_OPERATOR": "<", "pKi": 3.30}
{"COMPOUND": "COC(=O)CCCCCCC#CCCCCCCCO[C@H]1[C@H](O)[C@@H](CO)OC(O)[C@@H]1O (some centres undefined)", "CENSORING_OPERATOR": "<", "pKi": 3.30}
{"COMPOUND": "OC[C@H]1OC(O)[C@H](O)[C@@H](OCCCC(F)(F)C(F)(F)C(F)(F)C(F)(F)C(F)(F)C(F)(F)F)[C@@H]1O (some centres undefined)", "CENSORING_OPERATOR": "<", "pKi": 3.30}
{"COMPOUND": "CCCCCCCC/C=C/CCCCCCO[C@H]1[C@H](O)[C@@H](CO)OC(O)[C@@H]1O (some centres undefined)", "CENSORING_OPERATOR": "<", "pKi": 3.30}
{"COMPOUND": "C=CCCCCCCCCCO[C@H]1[C@H](O)[C@@H](CO)OC(O)[C@@H]1O (some centres undefined)", "CENSORING_OPERATOR": "=", "pKi": 4.28}
{"COMPOUND": "CCCCCCCCCCO[C@H]1[C@H](O)[C@@H](CO)OC(O)[C@@H]1O (some centres undefined)", "CENSORING_OPERATOR": "=", "pKi": 4.72}

====

# SYSTEM_UNDER_TEST: Hexose transporter 1 (Plasmodium falciparum, UniProt O97467)
# Sequence (O97467 whole entry): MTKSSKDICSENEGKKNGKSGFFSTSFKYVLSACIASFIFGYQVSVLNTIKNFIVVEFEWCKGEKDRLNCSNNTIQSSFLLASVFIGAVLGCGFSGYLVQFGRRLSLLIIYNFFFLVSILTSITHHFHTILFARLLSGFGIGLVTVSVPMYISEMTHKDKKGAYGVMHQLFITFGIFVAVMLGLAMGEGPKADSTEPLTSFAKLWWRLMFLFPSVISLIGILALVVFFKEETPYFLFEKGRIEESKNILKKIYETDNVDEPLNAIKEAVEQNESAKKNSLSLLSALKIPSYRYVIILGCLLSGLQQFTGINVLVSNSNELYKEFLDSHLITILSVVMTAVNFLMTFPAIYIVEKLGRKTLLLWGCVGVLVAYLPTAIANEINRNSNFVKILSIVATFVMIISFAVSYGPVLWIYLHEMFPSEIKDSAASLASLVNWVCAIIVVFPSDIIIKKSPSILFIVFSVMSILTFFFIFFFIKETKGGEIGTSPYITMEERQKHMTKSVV
# METHOD_DESCRIPTION: Inhibition of D-glucose uptake mediated by PfHT expressed in Xenopus oocytes
# Type: functional, cell-based, Oocyte
# CONDITION_SET: read-out: Ki
Listed next: entries and their corresponding Ki.

{"MOLECULE": "C=CCCCCCCCCO[C@H]1[C@H](O)[C@@H](CO)OC(O)[C@@H]1O (some centres undefined)", "SYSTEM_UNDER_TEST": "Hexose transporter 1 (Plasmodium falciparum, UniProt O97467)", "READOUT_UNITS": "µM", "CENSORING_OPERATOR": "=", "Ki": 49}
{"MOLECULE": "OC[C@H]1OC(O)[C@H](O)[C@@H](OCCCCCCCCc2ccccc2)[C@@H]1O (some centres undefined)", "SYSTEM_UNDER_TEST": "Hexose transporter 1 (Plasmodium falciparum, UniProt O97467)", "READOUT_UNITS": "µM", "CENSORING_OPERATOR": "=", "Ki": 148}
{"MOLECULE": "CCCCCCCCO[C@H]1[C@H](O)[C@@H](CO)OC(O)[C@@H]1O (some centres undefined)", "SYSTEM_UNDER_TEST": "Hexose transporter 1 (Plasmodium falciparum, UniProt O97467)", "READOUT_UNITS": "µM", "CENSORING_OPERATOR": "=", "Ki": 30}
{"MOLECULE": "C=CCOCCO[C@H]1[C@H](O)[C@@H](CO)OC(O)[C@@H]1O (some centres undefined)", "SYSTEM_UNDER_TEST": "Hexose transporter 1 (Plasmodium falciparum, UniProt O97467)", "READOUT_UNITS": "µM", "CENSORING_OPERATOR": ">", "Ki": 500}
{"MOLECULE": "CCCCCCCCCCCCCCCCCCO[C@H]1[C@H](O)[C@@H](CO)OC(O)[C@@H]1O (some centres undefined)", "SYSTEM_UNDER_TEST": "Hexose transporter 1 (Plasmodium falciparum, UniProt O97467)", "READOUT_UNITS": "µM", "CENSORING_OPERATOR": ">", "Ki": 500}
{"MOLECULE": "CCCCCCCO[C@H]1[C@H](O)[C@@H](CO)OC(O)[C@@H]1O (some centres undefined)", "SYSTEM_UNDER_TEST": "Hexose transporter 1 (Plasmodium falciparum, UniProt O97467)", "READOUT_UNITS": "µM", "CENSORING_OPERATOR": "<", "Ki": 500}
{"MOLECULE": "OC[C@H]1OC(O)[C@H](O)[C@@H](OCCCCCCCC(F)(F)C(F)(F)C(F)(F)C(F)(F)C(F)(F)C(F)(F)F)[C@@H]1O (some centres undefined)", "SYSTEM_UNDER_TEST": "Hexose transporter 1 (Plasmodium falciparum, UniProt O97467)", "READOUT_UNITS": "µM", "CENSORING_OPERATOR": "=", "Ki": 130}
{"MOLECULE": "C=CCCCCCCCCCCCCCO[C@H]1[C@H](O)[C@@H](CO)OC(O)[C@@H]1O (some centres undefined)", "SYSTEM_UNDER_TEST": "Hexose transporter 1 (Plasmodium falciparum, UniProt O97467)", "READOUT_UNITS": "µM", "CENSORING_OPERATOR": "=", "Ki": 37}
{"MOLECULE": "C=CCCCCCCCOCCO[C@H]1[C@H](O)[C@@H](CO)OC(O)[C@@H]1O (some centres undefined)", "SYSTEM_UNDER_TEST": "Hexose transporter 1 (Plasmodium falciparum, UniProt O97467)", "READOUT_UNITS": "µM", "CENSORING_OPERATOR": "=", "Ki": 590}
